Source: PubChem BioAssay AID1919015

Test system: OVCAR-5 complex spheroids with HUVEC/MSC, viability, % test/control
Experiment: Anticancer human tumor OVCAR-5 cell line growth inhibition [AhR];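 further: spheroids exposed to compounds for 7 days; 100% = DMSO vehicle control wells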
Conditions: second compound 1 µM; first compound 0.1 µM; hits give low values
observation_type: viability, T/C (%)
Record the value in %, omitting the unit from your answer.

Req: Query viability, T/C for CC[C@@]1(O)C(=O)OCc2c1cc1n(c2=O)Cc2cc3c(CN(C)C)c(O)ccc3nc2-1 + CC(CO)NC(=O)c1cc(-c2ccc(Cl)cc2)nn(-c2cnn(C)c2)c1=O
Resp: 56.4

Req: Query viability, T/C for CC(C)c1c(-c2ccccc2)nc2c(C#N)c[nH]n2c1=O + CC(CO)NC(=O)c1cc(-c2ccc(Cl)cc2)nn(-c2cnn(C)c2)c1=O
Resp: 121

Req: Query viability, T/C for Cn1ncnc1C1c2n[nH]c(=O)c3cc(F)cc(c23)NC1c1ccc(F)cc1 (stereo unspecified) + Cc1ccccc1N=Nc1ccc(NC(=O)c2ccnn2C)c(C)c1
Resp: 102

Req: Query viability, T/C for COc1cc(C2c3cc4c(cc3C(OC3OC5COC(C)OC5C(O)C3O)C3COC(=O)C23)OCO4)cc(OC)c1O (stereo unspecified) + Cc1cncc(-c2nc(NCCc3c[nH]c4ccccc34)c3ncn(C(C)C)c3n2)c1
Resp: 91.6

Req: Query viability, T/C for CC1COCCN1c1cc(C2(S(C)(=N)=O)CC2)nc(-c2ccnc3[nH]ccc23)n1 (stereo unspecified) + Cc1ccccc1N=Nc1ccc(NC(=O)c2ccnn2C)c(C)c1
Resp: 115

Req: Query viability, T/C for Nc1ccccc1NC(=O)c1ccc(CNC(=O)OCc2cccnc2)cc1 + CC(CO)NC(=O)c1cc(-c2ccc(Cl)cc2)nn(-c2cnn(C)c2)c1=O
Resp: 85.3
